Target under test: Human ATX protein (Homo sapiens)
Construct: made in house
Experiment notes: Autotaxin (ATX) assay, FRET with FS-3 substrate
Assay type: biochemical
Measurement setup: upper bound bins (no greater than 100, 250 or 500 nM); FS-3 2 μM, ATX 1.0 μg/mL
Property name: IC50

Example compounds with recorded IC50:
[
  {
    "Compound": "O=C(OCc1cc(C(F)(F)F)cc(C(F)(F)F)c1)N1CCCn2nc(N3CCCNCC3)cc2C1",
    "Test value": "≤ 100 nM"
  },
  {
    "Compound": "O=C(O)c1cc2n(n1)CCCN(C(=O)OCc1cccc(C(F)(F)F)c1)C2",
    "Test value": "≤ 500 nM"
  },
  {
    "Compound": "O=C(OCc1cc(C(F)(F)F)cc(C(F)(F)F)c1)N1CCCn2nc(C3CCNC3)cc2C1 (stereo not drawn)",
    "Test value": "≤ 250 nM"
  },
  {
    "Compound": "O=C(O)c1cc2n(n1)CCCN(C(=O)COc1cc(C(F)(F)F)cc(C(F)(F)F)c1)C2",
    "Test value": "≤ 500 nM"
  },
  {
    "Compound": "CN1CCN(C(=O)c2cc3n(n2)CCCN(C(=O)OCc2cc(C(F)(F)F)cc(C(F)(F)F)c2)C3)C(C)(C)C1",
    "Test value": "≤ 100 nM"
  },
  {
    "Compound": "CNC1CN(C(=O)c2cc3n(n2)CCCN(C(=O)OCc2cc(C(F)(F)F)cc(C(F)(F)F)c2)C3)C1",
    "Test value": "≤ 100 nM"
  }
]

The following compounds each have a reported value; give each one's IC50.
1. CCC1(CC)CNCCN1C(=O)c1cc2n(n1)CCCN(C(=O)OCc1cc(C(F)(F)F)cc(C(F)(F)F)c1)C2
2. CN1CCN(C(=O)c2cc3n(n2)CCCN(C(=O)OCc2cc(Cl)cc(C(F)(F)F)c2)C3)C2(CCCC2)C1

## Output
≤ 100 nM
≤ 100 nM

###

I'd appreciate it if you could supply IC50 values for the items below.
Target under test: Human ATX protein (Homo sapiens, UniProt Q13822)
Construct: made in house
Experiment notes: Autotaxin (ATX) assay, FRET with FS-3 substrate
Format: biochemical
Measurement setup: upper bound bins (no greater than 100, 250 or 500 nM); FS-3 2 μM, ATX 1.0 μg/mL

Worked cases, IC50 given:
[
  {
    "Input smiles": "O=C(OCc1cc(C(F)(F)F)cc(C(F)(F)F)c1)N1CCCn2nc(N3CC4CCC(C3)N4)cc2C1",
    "IC50": "≤ 250 nM"
  },
  {
    "Input smiles": "CCOC(=O)c1nn2c(c1Cl)CN(C(=O)OCc1cc(C(F)(F)F)cc(C(F)(F)F)c1)CC2",
    "IC50": "≤ 250 nM"
  },
  {
    "Input smiles": "CC(C)(C)OC(=O)N1C2CCC1CN(C(=O)c1cc3n(n1)CCN(C(=O)OCc1cc(C(F)(F)F)cc(C(F)(F)F)c1)C3)C2",
    "IC50": "≤ 100 nM"
  }
]

In the following, a different compound is considered.
# IC50 (compound: CCN1CCN(C(=O)c2cc3n(n2)CCCN(C(=O)OCc2cc(C(F)(F)F)cc(C(F)(F)F)c2)C3)C2(CC2)C1 ) is ≤ 100 nM
